Entry source: paper PMC4336329

# test_target: human ether-à-go-go-related gene (hERG) potassium channel (human)
# Sequence (Q12809 whole entry, looked up): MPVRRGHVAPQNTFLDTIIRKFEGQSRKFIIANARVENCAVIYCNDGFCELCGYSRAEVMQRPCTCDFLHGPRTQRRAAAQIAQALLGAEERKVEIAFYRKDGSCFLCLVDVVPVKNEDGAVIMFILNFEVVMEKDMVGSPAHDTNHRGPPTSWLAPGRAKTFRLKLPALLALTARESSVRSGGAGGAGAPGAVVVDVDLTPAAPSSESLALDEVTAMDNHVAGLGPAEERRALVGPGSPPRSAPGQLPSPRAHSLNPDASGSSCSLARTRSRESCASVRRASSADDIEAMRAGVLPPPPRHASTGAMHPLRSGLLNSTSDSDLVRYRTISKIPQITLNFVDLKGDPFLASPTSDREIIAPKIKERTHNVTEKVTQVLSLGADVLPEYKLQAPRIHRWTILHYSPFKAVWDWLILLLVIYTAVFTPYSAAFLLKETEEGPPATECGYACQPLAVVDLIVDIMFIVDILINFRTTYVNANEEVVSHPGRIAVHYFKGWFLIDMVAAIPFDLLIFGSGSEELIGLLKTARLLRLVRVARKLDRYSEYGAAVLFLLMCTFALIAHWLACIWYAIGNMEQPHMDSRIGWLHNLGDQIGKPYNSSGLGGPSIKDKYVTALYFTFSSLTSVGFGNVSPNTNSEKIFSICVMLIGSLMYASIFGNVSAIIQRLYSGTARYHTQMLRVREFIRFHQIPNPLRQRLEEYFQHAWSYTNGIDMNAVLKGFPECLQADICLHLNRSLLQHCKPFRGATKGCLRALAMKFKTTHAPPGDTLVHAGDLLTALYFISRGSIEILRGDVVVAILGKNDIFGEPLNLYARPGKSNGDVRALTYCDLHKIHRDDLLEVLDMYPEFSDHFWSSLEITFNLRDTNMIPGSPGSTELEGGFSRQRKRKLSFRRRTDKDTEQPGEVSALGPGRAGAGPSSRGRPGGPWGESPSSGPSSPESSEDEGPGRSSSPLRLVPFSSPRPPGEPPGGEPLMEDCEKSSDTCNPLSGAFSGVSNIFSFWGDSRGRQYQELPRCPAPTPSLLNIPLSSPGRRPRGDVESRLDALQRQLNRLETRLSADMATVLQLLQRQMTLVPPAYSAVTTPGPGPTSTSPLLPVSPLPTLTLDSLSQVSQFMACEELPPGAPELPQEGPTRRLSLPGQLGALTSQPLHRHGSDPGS
# method_notes: primary screen, population patch clamp on CHO cells stably expressing hERG; higher = less effect of the substance
About 2,200 (0.71%) of roughly 310,000 compounds showed an effect of 50% or more. The effect is printed as a negative number. Only a selection was taken, and strong results are over-represented in it overall.
property: hERG current change (%, negative = inhibition) at 1uM (%)
Numeric only. Scale: %

# annotated cases, reported hERG current change (%, negative = inhibition) at 1uM shown
Dear colleague, I am looking for the recorded hERG current change (%, negative = inhibition) at 1uM of the following compound: "CCCc1nnc(SCC(=O)Nc2ccc(OC)cc2)n1N"
11.1

What does the data say about its hERG current change (%, negative = inhibition) at 1uM? Entry: "Cc1cc(C(C)(C)C)ccc1OCCOCCN1CCCC1"
-0.816

***
Give the measured hERG current change (%, negative = inhibition) at 1uM of CCCC(C)C(=O)OCC(=O)Nc1c(Br)cc(C)cc1Br (stereo not shown) .
9.86

Record request: hERG current change (%, negative = inhibition) at 1uM value, item "Cc1cc(C(C)(C)C)ccc1OCCN(C)C"
-15.1

Quick one: hERG current change (%, negative = inhibition) at 1uM for "Cc1cc(C(C)(C)CC(C)(C)C)ccc1OCCOCC[N+](C)(C)Cc1ccccc1.[Cl-]" ?
-62

Request the reported hERG current change (%, negative = inhibition) at 1uM associated with "CN1CCN(C(=O)c2cnn(-c3ccccc3)c2NC(=O)c2ccc(Br)cc2)CC1"
-88.5

I have this compound here, "Cc1ccc(OCC(=O)NC(=S)Nc2ccc(Br)c(C)n2)cc1" , and I need its recorded hERG current change (%, negative = inhibition) at 1uM.
5.89

Would you mind telling me what hERG current change (%, negative = inhibition) at 1uM value was observed for "CCN1CCN(c2ncnc3sc(C)c(-c4ccccc4)c23)CC1" ?
-25.9

May I ask what hERG current change (%, negative = inhibition) at 1uM has been recorded for Cc1ccc(-n2nc(C)c3c2OC(N)=C(C#N)C3c2cccs2)cc1 (stereo not shown) ?
9.08

# query: hERG current change (%, negative = inhibition) at 1uM of entry "COc1cccc(/C=C/C(=O)OCC(=O)NC2CC2)c1"
10.5
